tested-on: human TRPM8 (Homo sapiens)
Construct: expressed in transfected cells; host or cells: Chinese hamster ovary (CHO) cells, T-REx tetracycline-inducible system, co-transfected with aequorin
protocol-text: Luminescence readout assay for measuring intracellular calcium, icilin activation
Type: cell-based
measurement-conditions: CHO cells expressing human TRPM8, aequorin luminescence, 1 μM icilin activation; read-out: hTRPM8 IC50
Each entry belongs to exactly one class, chosen by where its IC50 falls: low class (below 20 nM), middle class (20 nM to below 100 nM), high class (100 nM or more)

{"columns": ["compound", "answer-label"],
 "data": [
  ["COc1ccc2cc([C@H](NC(=O)c3ccc4cccnc4c3)c3ncccc3C(F)(F)F)cnc2c1", "middle class"],
  ["O=C(N[C@@H](c1cccc(Cl)c1)c1ncccc1C(F)(F)F)c1ccc2cccnc2c1", "middle class"],
  ["O=C(Cc1cccnc1)N[C@@H](c1ccc(OC(F)(F)F)c(F)c1)c1ncccc1F", "high class"]
]}

Task: Into which category would you place CCn1cc(C(=O)N[C@@H](c2ccc(C(F)(F)F)cc2)c2ncccc2F)ccc1=O ?
Output: low class

Task: O=C(Cc1ccncc1)N[C@@H](c1ccc(OC(F)(F)F)c(F)c1)c1ncccc1F ?
Output: high class

Task: Entry Cc1nc2cc(C(=O)N[C@@H](c3ccc(C(F)(F)F)cc3)c3ncccc3F)ccc2[nH]1 please
Output: low class

###

The reader will find reported IC50 values listed item by item below.
tested-on: human TRPM8 (Homo sapiens, UniProt Q7Z2W7)
Construct: expressed in transfected cells; host or cells: Chinese hamster ovary (CHO) cells, T-REx tetracycline-inducible system, co-transfected with aequorin
Sequence (Q7Z2W7 whole entry): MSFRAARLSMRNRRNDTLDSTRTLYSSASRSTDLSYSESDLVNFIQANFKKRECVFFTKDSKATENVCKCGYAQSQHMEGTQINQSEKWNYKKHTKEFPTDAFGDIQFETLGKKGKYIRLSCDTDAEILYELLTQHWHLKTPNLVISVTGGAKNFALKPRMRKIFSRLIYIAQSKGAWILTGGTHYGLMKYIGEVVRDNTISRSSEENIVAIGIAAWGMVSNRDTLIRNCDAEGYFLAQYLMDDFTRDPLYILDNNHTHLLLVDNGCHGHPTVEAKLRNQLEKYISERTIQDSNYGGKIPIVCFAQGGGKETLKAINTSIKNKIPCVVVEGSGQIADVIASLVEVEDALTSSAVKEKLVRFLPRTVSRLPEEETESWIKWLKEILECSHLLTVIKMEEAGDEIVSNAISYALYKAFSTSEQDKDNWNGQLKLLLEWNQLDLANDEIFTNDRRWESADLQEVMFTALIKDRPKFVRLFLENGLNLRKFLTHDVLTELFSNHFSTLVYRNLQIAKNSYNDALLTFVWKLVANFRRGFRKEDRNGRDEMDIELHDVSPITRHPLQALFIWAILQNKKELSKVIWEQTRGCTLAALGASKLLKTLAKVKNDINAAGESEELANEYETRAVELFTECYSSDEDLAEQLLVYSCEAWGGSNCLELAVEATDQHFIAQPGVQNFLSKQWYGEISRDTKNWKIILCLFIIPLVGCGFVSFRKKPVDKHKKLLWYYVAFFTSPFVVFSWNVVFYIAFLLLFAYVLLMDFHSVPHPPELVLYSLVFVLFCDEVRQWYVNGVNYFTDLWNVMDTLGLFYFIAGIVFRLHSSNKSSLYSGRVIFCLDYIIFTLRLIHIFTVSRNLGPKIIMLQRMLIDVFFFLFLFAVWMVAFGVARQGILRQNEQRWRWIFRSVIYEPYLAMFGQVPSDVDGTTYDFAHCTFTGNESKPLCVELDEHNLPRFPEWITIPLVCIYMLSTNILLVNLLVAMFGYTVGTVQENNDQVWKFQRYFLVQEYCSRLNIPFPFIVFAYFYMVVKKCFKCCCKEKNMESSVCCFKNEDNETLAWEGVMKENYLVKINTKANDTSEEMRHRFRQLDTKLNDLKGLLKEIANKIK
protocol-text: Luminescence readout assay for measuring intracellular calcium, icilin activation
Format: cell-based
measurement-conditions: CHO cells expressing human TRPM8, aequorin luminescence, 1 μM icilin activation; read-out: hTRPM8 IC50
Where a name gives a salt, the structure may show the parent alone.
All answers are understood in nM, so give the number only.

Task: Entry under review: Cc1cccnc1[C@@H](NC(=O)c1ccc2oc(=O)[nH]c2c1)c1ccc(OC(F)(F)F)c(F)c1 . Reported IC50?
Output: 14.1

Task: Then what about the compound O=C(NC(c1ccc(Cl)c(Cl)c1)c1ccccn1)c1ccc2cnccc2c1 (stereo not shown) [Example 247, bis-hydrochloride] ?
Output: 42.7

Task: Let us now turn to O=C(N[C@@H](c1ccc(OC(F)(F)F)c(F)c1)c1ncccc1F)c1ccc(=O)n(C[C@H](O)C(F)(F)F)c1
Output: 78.1

Task: Next record, please: O=C(N[C@@H](c1ccc(C(F)(F)F)cc1)c1ncccc1C(F)(F)F)c1ccc[nH]c1=O
Output: 41.6

###

tested-on: human TRPM8 (Homo sapiens)
Construct: expressed in transfected cells; host or cells: Chinese hamster ovary (CHO) cells, T-REx tetracycline-inducible system, co-transfected with aequorin
protocol-text: Luminescence readout assay for measuring intracellular calcium, icilin activation
Format: cell-based
measurement-conditions: CHO cells expressing human TRPM8, aequorin luminescence, 1 μM icilin activation; read-out: hTRPM8 IC50
Known IC50 of a selection of compounds
Quick reminder: number only, in nM, skip the unit.

Past entries and their recorded results:
{"columns": ["compound", "readout-unit", "observed-result"],
 "data": [
  ["O=C(N[C@@H](c1ccc(C(F)(F)F)c(F)c1)c1ncccc1C(F)(F)F)c1ccc2ncccc2c1 [Example 130, bis (2,2,2-trifluoroacetate)]", "nM", 24.7],
  ["COC(=O)c1cccc(C(=O)N[C@@H](c2ccc(C(F)(F)F)cc2)c2ncccc2C(F)(F)F)c1 [Example 189]", "nM", 80.6],
  ["C[C@@H](O)Cn1cc(C(=O)N[C@@H](c2ccc(C(F)(F)F)cc2)c2ncccc2F)ccc1=O [Example 301]", "nM", 41.7]
]}

Task: Which IC50 value is on record for O=C(N[C@@H](c1ccc(C(F)(F)F)cc1)c1ncccc1F)c1ccc[nH]c1=O [Example 72] ?
Output: 167

###

Consider the following compounds and their measured pIC50 readings.
tested-on: human TRPM8 (Homo sapiens)
Construct: expressed in transfected cells; host or cells: Chinese hamster ovary (CHO) cells, T-REx tetracycline-inducible system, co-transfected with aequorin
protocol-text: Luminescence readout assay for measuring intracellular calcium, icilin activation
Type: cell-based
measurement-conditions: CHO cells expressing human TRPM8, aequorin luminescence, 1 μM icilin activation; read-out: hTRPM8 IC50
Where a name gives a salt, the structure may show the parent alone.
Reminder that pIC50 is minus the log10 of a molar concentration.

Solved entries:
{"columns": ["compound", "tested-on", "pIC50"],
 "data": [
  ["O=C(O)c1cccc(C(=O)N[C@@H](c2ccc(OC(F)(F)F)c(F)c2)c2ncccc2F)n1 [Example 415, trifluoroacetate]", "human TRPM8 (Homo sapiens)", 6.19],
  ["O=C(N[C@@H](c1ccc(C(F)(F)F)cc1)c1ncccc1F)c1ccc2[nH]cnc2c1 [Example 392]", "human TRPM8 (Homo sapiens)", 8.12],
  ["O=C(N[C@@H](c1ccc(C(F)(F)F)cc1)c1ncccc1C(F)(F)F)c1ccc2c(c1)NCCC2 [Example 274]", "human TRPM8 (Homo sapiens)", 6.70]
]}

Task: Need pIC50 of COc1ccc([C@H](NC(=O)c2ccc(=O)n(C)c2)c2ncccc2F)cc1F [Example 337] , thanks.
Output: 6.50

Task: Same read-out for O=C(N[C@@H](c1ccc(C(F)(F)F)cc1)c1ncccc1C(F)(F)F)c1ccc2cccnc2n1 [Example 128, 2,2,2-trifluoroacetate] ?
Output: 6.90

Task: What about O=C(N[C@@H](c1ccc(C(F)(F)F)cc1)c1ncccc1F)c1ccc2nccc(Cl)c2c1 [Example 113, 2,2,2-trifluoroacetate] ?
Output: 7.51

Task: Proceed to CC#Cc1cccnc1[C@@H](NC(=O)c1ccccc1)c1ccc(C(F)(F)F)cc1 [Example 98]
Output: 6.90

###

Consider the following molecules and their measured pIC50 readings.
tested-on: human TRPM8 (Homo sapiens)
Construct: expressed in transfected cells; host or cells: Chinese hamster ovary (CHO) cells, T-REx tetracycline-inducible system, co-transfected with aequorin
protocol-text: Luminescence readout assay for measuring intracellular calcium, icilin activation
Assay type: cell-based
measurement-conditions: CHO cells expressing human TRPM8, aequorin luminescence, 1 μM icilin activation; read-out: hTRPM8 IC50
In textbook form, pIC50 equals minus log to base ten of the concentration in mol/L.

Use these answered entries as a reference point.
{"columns": ["molecule", "pIC50"],
 "data": [
  ["Cc1cc([C@H](NC(=O)c2ccc(=O)[nH]c2)c2ncccc2F)ccc1OC(F)(F)F [Example 381]", 7.98],
  ["O=C(N[C@@H](c1ccc(C(F)(F)F)cc1)c1ncccc1F)c1ccc2ccc(=O)[nH]c2c1 [Example 125]", 6.75],
  ["COc1ccccc1C(=O)N[C@@H](c1ccc(C(F)(F)F)cc1)c1ncccc1F [Example 169]", 7.98],
  ["COc1ccncc1C(=O)N[C@@H](c1ccc(C(F)(F)F)cc1)c1ncccc1C(F)(F)F [Example 55]", 7.52],
  ["O=C(N[C@@H](c1ccc(OC(F)(F)F)cc1)c1ncccc1F)c1ccc2nccn2c1 [Example 89]", 7.99]
]}

Task: Name the reported pIC50 value associated with the molecule O=C(N[C@@H](c1ccc(C(F)(F)F)cc1)c1ncccc1C(F)(F)F)c1ccc(F)cc1 [Example 183]
Output: 7.40

Task: Let us now turn to Cn1ccc(C(=O)N[C@@H](c2ccc(C(F)(F)F)cc2)c2ncccc2C(F)(F)F)n1 [Example 192]
Output: 7.10

Task: Quick one: Cc1cccnc1[C@@H](NC(=O)c1ccc2c(c1)OCC(=O)N2)c1ccc(OC(F)(F)F)c(F)c1 [Example 357]
Output: 7.33

Task: Quick one: COc1cncc(C(=O)N[C@@H](c2ccc(C(F)(F)F)cc2)c2ncccc2C(F)(F)F)c1 [Example 38]
Output: 7.11

###

tested-on: human TRPM8 (Homo sapiens)
Construct: expressed in transfected cells; host or cells: Chinese hamster ovary (CHO) cells, T-REx tetracycline-inducible system, co-transfected with aequorin
protocol-text: Luminescence readout assay for measuring intracellular calcium, icilin activation
Format: cell-based
measurement-conditions: CHO cells expressing human TRPM8, aequorin luminescence, 1 μM icilin activation; read-out: hTRPM8 IC50
measured-endpoint: IC50 (nM)
Express your answer in nM, writing the number without its unit.

A selection of reference data follows.
{"columns": ["molecule", "readout-unit", "observed-result"],
 "data": [
  ["O=C(CCc1c[nH]cn1)N[C@@H](c1ccc(C(F)(F)F)cc1)c1ncccc1C(F)(F)F [Example 155, 2,2,2-trifluoroacetate]", "nM", 1440],
  ["O=C(N[C@@H](c1ccc(C(F)(F)F)c(F)c1)c1ncccc1C(F)(F)F)[C@H]1CCCO1", "nM", 149]
]}

Task: Record request: IC50 value, item Cc1ccc(F)c([C@@H](NC(=O)c2ccc(=O)[nH]c2)c2ccc(C(F)(F)F)cc2)n1
Output: 71.8

Task: Also Cc1ncoc1C(=O)NC(c1ccc(C(F)(F)F)cc1)c1ncccc1F (stereo not shown) ?
Output: 105

Task: Next: CCc1ccc([C@H](NC(=O)c2ccc3cccnc3c2)c2ncccc2C(F)(F)F)cc1
Output: 56.2

Task: Request: O=C(N[C@@H](c1ccc(C(F)(F)F)cc1)c1ncccc1C(F)(F)F)c1ccncc1
Output: 26.2

Task: Moving on to the next molecule: CO[C@@](C(=O)N[C@@H](c1ccc(C(F)(F)F)cc1)c1ncccc1C(F)(F)F)(c1ccccc1)C(F)(F)F
Output: 733
